assay: protein stability index of a GFP-peptide fusion (yeast GPS) (PSI 1-4); higher = more stable; sorted into four equal gates, so the index is relative within each strain; conditions: ubr1∆
Decide by protein stability index: equal to or exceeding 3 means Met, less means Not met.

// below: answered sequences
MVQQLSLFGSIGDDGYD [SRB5]    Met
TTDKNTTDDKSMDTKKK [BRN1]    Met
NVPSTKFNAAPEENATE [SNF12]    Met

Query: Identify whether the reported protein stability index of the following sequence is 3 or greater: TVKLYLPEILNVLCVNI [ECM29]
Reply: Not met

Query: Identify whether the reported protein stability index of the following sequence is 3 or greater: ERTKNAQFIVISLRNNM [SMC4]
Reply: Not met

Query: Identify whether the reported protein stability index of the following sequence is 3 or greater: GIKLQMQNSKVESVCQK [SMC4]
Reply: Not met

Query: Identify whether the reported protein stability index of the following sequence is 3 or greater: IGGSLARIALRHLEKEG [RPS25A]
Reply: Not met

Query: Identify whether the reported protein stability index of the following sequence is 3 or greater: TMANILYYPQKPLGTTR [RPB2]
Reply: Not met

Query: Identify whether the reported protein stability index of the following sequence is 3 or greater: ERVRNFAVIYLCDIDEV [DIB1]
Reply: Not met

Query: Identify whether the reported protein stability index of the following sequence is 3 or greater: LLLSPDQWYCIDKLEDL [ITC1]
Reply: Not met

Query: Identify whether the reported protein stability index of the following sequence is 3 or greater: NYIPGNPLVTPASIVPE [COB]
Reply: Not met

Query: Identify whether the reported protein stability index of the following sequence is 3 or greater: DDDDSRKSAPVDSWDRE [SKP1]
Reply: Met

Query: Identify whether the reported protein stability index of the following sequence is 3 or greater: SKKGKPTVNKKPKNKKK [SRP72]
Reply: Not met

Query: Identify whether the reported protein stability index of the following sequence is 3 or greater: DEESLVKYMPEQKITEI [RPO21]
Reply: Met

Query: Identify whether the reported protein stability index of the following sequence is 3 or greater: VRELGILCIFEGEKCHP [SEC65]
Reply: Not met

Query: Identify whether the reported protein stability index of the following sequence is 3 or greater: IDEVFSWYLNTFDGIRM [GRR1]
Reply: Not met

Query: Identify whether the reported protein stability index of the following sequence is 3 or greater: SSDELKVIEEQLKHTKL [SMC4]
Reply: Met

Query: Identify whether the reported protein stability index of the following sequence is 3 or greater: MAGKVLILTSHNMKAYY [BRR2]
Reply: Not met

Query: Identify whether the reported protein stability index of the following sequence is 3 or greater: VYSFDPVGSYEREQCRA [PRE7]
Reply: Met

Query: Identify whether the reported protein stability index of the following sequence is 3 or greater: TIHAKRKIVFRCSECIK [RPN4]
Reply: Not met

Query: Identify whether the reported protein stability index of the following sequence is 3 or greater: EKTLGKSLSKAISTGAK [RPN7]
Reply: Met

Query: Identify whether the reported protein stability index of the following sequence is 3 or greater: PKLLDALNKISKYYPGV [SNU114]
Reply: Not met

Query: Identify whether the reported protein stability index of the following sequence is 3 or greater: SGGSRNTSESLLVDIQK [SMC2]
Reply: Not met

Query: Identify whether the reported protein stability index of the following sequence is 3 or greater: ITQMRVNDEEEHKQLVA [RPC82]
Reply: Met

Query: Identify whether the reported protein stability index of the following sequence is 3 or greater: NSAIIQNLRKELLIYKK [YIL149C/MLP2]
Reply: Met

Query: Identify whether the reported protein stability index of the following sequence is 3 or greater: GDEGYNEDMVRRANFYK [SNF12]
Reply: Met

Query: Identify whether the reported protein stability index of the following sequence is 3 or greater: DGAGGDNEVQRTMLELI [RPT1]
Reply: Met

Query: Identify whether the reported protein stability index of the following sequence is 3 or greater: DALKVVLRTALVHDGLA [RPS12]
Reply: Met
